Biological target: SARS-CoV-2 Spike-RBD (beta) / ACE2 (Homo sapiens)
Construct: a SARS-CoV-2 RBD protein containing a C-terminal His tag; a full-length ACE2 peptide with a C-terminal Fc tag; purchased Sino Biological
Sequence (Q9BYF1 18-740): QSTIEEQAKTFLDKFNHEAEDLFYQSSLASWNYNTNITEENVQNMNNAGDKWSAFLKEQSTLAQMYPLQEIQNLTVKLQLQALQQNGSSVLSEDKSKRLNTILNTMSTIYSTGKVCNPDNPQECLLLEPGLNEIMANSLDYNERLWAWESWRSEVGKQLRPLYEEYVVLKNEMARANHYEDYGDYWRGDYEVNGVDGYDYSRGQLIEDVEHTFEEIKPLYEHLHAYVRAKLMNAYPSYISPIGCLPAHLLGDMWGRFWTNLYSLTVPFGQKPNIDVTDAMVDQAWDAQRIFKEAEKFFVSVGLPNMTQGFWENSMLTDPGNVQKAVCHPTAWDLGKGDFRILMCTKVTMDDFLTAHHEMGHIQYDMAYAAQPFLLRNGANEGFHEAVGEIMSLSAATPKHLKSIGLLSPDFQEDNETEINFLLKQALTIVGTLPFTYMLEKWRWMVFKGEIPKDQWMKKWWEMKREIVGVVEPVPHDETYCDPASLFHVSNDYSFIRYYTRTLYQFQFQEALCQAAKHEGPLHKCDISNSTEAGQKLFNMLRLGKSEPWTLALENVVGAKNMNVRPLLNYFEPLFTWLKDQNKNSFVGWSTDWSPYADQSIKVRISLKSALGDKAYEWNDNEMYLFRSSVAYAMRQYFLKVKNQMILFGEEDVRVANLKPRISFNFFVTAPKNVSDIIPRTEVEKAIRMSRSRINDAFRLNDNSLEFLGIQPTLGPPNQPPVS
Assay: biochemical
Format: binding
pIC50: −log10 of the molar value.
parameter: pIC50

> print(dat)
                           molecular.string  measured
1  O=C1Nc2ccc(Cl)cc2C1=NNc1ccc([N+](=O)[O-])cc1[N+](=O)[O-]      6.31
